- ASSAYED_SYSTEM: T1, human B7-H4 on cells (human, UniProt Q7Z7D3 25-282); also: test concentration or dose not given here
- T1 sequence: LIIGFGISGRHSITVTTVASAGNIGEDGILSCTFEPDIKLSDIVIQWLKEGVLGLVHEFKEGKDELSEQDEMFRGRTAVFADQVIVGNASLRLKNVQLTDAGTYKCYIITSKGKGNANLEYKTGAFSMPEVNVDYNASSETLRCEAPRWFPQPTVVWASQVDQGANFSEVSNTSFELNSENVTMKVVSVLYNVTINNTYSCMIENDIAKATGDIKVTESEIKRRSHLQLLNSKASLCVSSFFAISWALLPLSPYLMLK
- EXPERIMENTAL_DETAILS: cell-based or functional assay
ZAP % Viability, SKBR3 overview
METRIC: ZAP % Viability, SKBR3

INSERT INTO results (binder, metric, obs_value) VALUES
  ('ZY0EOB-F05 human IgG1-TM (antibody, V domains shown) VH: QVQLQESGPGLVKPSQTLSLTCTVSDGSISSGGYYWSWIRQHPGKGLEWIGNIYYSGSTYYNPSLKSRVTISVDTSKNQFSLKLNSVTAADTAVYYCATEKALATVTPSGYENYYTVDVWGQGTTVTVSS VL: DIQLTQSPSFLSASVGDRVTITCWASQGISSYLAWYQQKPGKAPKLLIYAASTLQSGVPSRFSGSGSGTEFTLTISSLQPEDFATYYCQHLNSYPLTFGGGTKVEIK', 'ZAP % Viability, SKBR3', '84%'),
  ('ZY0EPQ-E02 human IgG1-TM (antibody, V domains shown) VH: QVQLQQWGAGLLKPSETLSLTCAVYGGSFSGYYWNWIRQPPGKGLEWIGEINHSGSTNYNPSLKSRVTILVDTSKNQFSLKLSSVTAADTAVYYCARNLYNWNLDSWGQGTLVTVSS VL: DIQMTQSPSSLSASVGDRVTITCRASQGIRNDLGWYQQKPGRAPKRLIYVASSLQSGVPSRFSGSGSGTEFTLTISSLQPEDFATYYCLQHNSYPRTFGQGTKVEIK', 'ZAP % Viability, SKBR3', '65%');
